Entries annotated with measured Measured, Room temperature for 4 h
assay-protocol: Stability of the analytes in rat plasma samples under storage conditions
Type: physicochemical
measurement-conditions: spiked concentration 20 ng/mL, n = 6
quantity-measured: Measured, Room temperature for 4 h (ng/mL)

>  <compound>
O=c1c(O)c(-c2ccc(O)c(O)c2)oc2cc(O)cc(O)c12

>  <quantity-measured>
Measured, Room temperature for 4 h

>  <number>
19.06

$$$$
>  <compound>
COc1c(O[C@@H]2O[C@H](C(=O)O)[C@@H](O)[C@H](O)[C@H]2O)cc(O)c2c(=O)cc(-c3ccccc3)oc12 [Wogonoside, wogonoside]

>  <quantity-measured>
Measured, Room temperature for 4 h

>  <number>
19.87

$$$$
>  <compound>
O=c1cc(-c2ccc(O)cc2)oc2cc(O)cc(O)c12

>  <quantity-measured>
Measured, Room temperature for 4 h

>  <number>
18.37

$$$$

* * *

assay-protocol: Stability of the analytes in rat plasma samples under storage conditions
Format: physicochemical
measurement-conditions: spiked concentration 2 ng/mL, n = 6
quantity-measured: Measured, -80°C for 7 days (ng/mL)

>  <compound>
O=c1c(O)c(-c2ccc(O)c(O)c2)oc2cc(O[C@@H]3O[C@H](CO)[C@@H](O)[C@H](O)[C@H]3O)cc(O)c12 [Quercetin-7-O-β-D-glucoside, quercetin-7-O-β-D-glucoside]

>  <number>
1.96

$$$$
>  <compound>
O=c1cc(-c2ccc(O)cc2)oc2cc(O)c(O)c(O)c12

>  <number>
1.77

$$$$
>  <compound>
COc1c(O)cc2oc(-c3ccc(O)cc3)cc(=O)c2c1O

>  <number>
1.85

$$$$
>  <compound>
COc1c(O[C@@H]2O[C@H](C(=O)O)[C@@H](O)[C@H](O)[C@H]2O)cc(O)c2c(=O)cc(-c3ccccc3)oc12 [Wogonoside, wogonoside]

>  <number>
1.78

$$$$

* * *

assay-protocol: Stability of the analytes in rat plasma samples under storage conditions
Type: physicochemical
measurement-conditions: spiked concentration 320 ng/mL, n = 6
Classification field: enter condition met for Measured, Three freeze-thaw cycles values not below 300 ng/mL, condition not met for values below it.

>  <compound>
COc1c(O[C@@H]2O[C@H](C(=O)O)[C@@H](O)[C@H](O)[C@H]2O)cc(O)c2c(=O)cc(-c3ccccc3)oc12 [Wogonoside, wogonoside]

>  <group>
condition met

$$$$
>  <compound>
O=c1c(O)c(-c2ccc(O)c(O)c2)oc2cc(O[C@@H]3O[C@H](CO)[C@@H](O)[C@H](O)[C@H]3O)cc(O)c12 [Quercetin-7-O-β-D-glucoside, quercetin-7-O-β-D-glucoside]

>  <group>
condition met

$$$$
>  <compound>
COc1c(O)cc2oc(-c3ccc(O)cc3)cc(=O)c2c1O [Hispidulin, hispidulin]

>  <group>
condition not met

$$$$
>  <compound>
COc1ccc(-c2cc(=O)c3c(O)cc(O)cc3o2)cc1 [Acacetin, acacetin]

>  <group>
condition not met

$$$$
>  <compound>
O=c1c(O)c(-c2ccc(O)c(O)c2)oc2cc(O)cc(O)c12 [Quercetin, quercetin]

>  <group>
condition not met

$$$$

* * *

assay-protocol: Stability of the analytes in rat plasma samples under storage conditions
Type: physicochemical
measurement-conditions: spiked concentration 2 ng/mL, n = 6

>  <compound>
O=c1c(O)c(-c2ccc(O)c(O)c2)oc2cc(O)cc(O)c12 [Quercetin, quercetin]

>  <Measured, Autosampler for 12 h>
1.90 ± 0.21 ng/mL

$$$$
>  <compound>
O=c1c(O)c(-c2ccc(O)c(O)c2)oc2cc(O[C@@H]3O[C@H](CO)[C@@H](O)[C@H](O)[C@H]3O)cc(O)c12 [Quercetin-7-O-β-D-glucoside, quercetin-7-O-β-D-glucoside]

>  <Measured, Autosampler for 12 h>
2.10 ± 0.15 ng/mL

$$$$
>  <compound>
O=c1cc(-c2ccc(O)cc2)oc2cc(O)cc(O)c12 [Apigenin, apigenin]

>  <Measured, Autosampler for 12 h>
2.00 ± 0.16 ng/mL

$$$$

* * *

assay-protocol: Stability of the analytes in rat plasma samples under storage conditions
Assay type: physicochemical
measurement-conditions: spiked concentration 20 ng/mL, n = 6

>  <compound>
O=c1c(O)c(-c2ccc(O)c(O)c2)oc2cc(O[C@@H]3O[C@H](CO)[C@@H](O)[C@H](O)[C@H]3O)cc(O)c12 [Quercetin-7-O-β-D-glucoside, quercetin-7-O-β-D-glucoside]

>  <Measured, Three freeze-thaw cycles, ng/mL>
17.78

$$$$
>  <compound>
COc1c(O)cc2oc(-c3ccc(O)cc3)cc(=O)c2c1O

>  <Measured, Three freeze-thaw cycles, ng/mL>
20.10

$$$$
>  <compound>
COc1c(O[C@@H]2O[C@H](C(=O)O)[C@@H](O)[C@H](O)[C@H]2O)cc(O)c2c(=O)cc(-c3ccccc3)oc12 [Wogonoside, wogonoside]

>  <Measured, Three freeze-thaw cycles, ng/mL>
18.01

$$$$
>  <compound>
O=c1cc(-c2ccc(O)cc2)oc2cc(O)cc(O)c12

>  <Measured, Three freeze-thaw cycles, ng/mL>
18.24

$$$$
>  <compound>
O=c1c(O)c(-c2ccc(O)c(O)c2)oc2cc(O)cc(O)c12

>  <Measured, Three freeze-thaw cycles, ng/mL>
20.46

$$$$
>  <compound>
O=c1cc(-c2ccc(O)cc2)oc2cc(O)c(O)c(O)c12

>  <Measured, Three freeze-thaw cycles, ng/mL>
21.33

$$$$
>  <compound>
COc1ccc(-c2cc(=O)c3c(O)cc(O)cc3o2)cc1

>  <Measured, Three freeze-thaw cycles, ng/mL>
17.60

$$$$

* * *

Quick reference: Measured, Room temperature for 4 h of the listed items.
assay-protocol: Stability of the analytes in rat plasma samples under storage conditions
Assay type: physicochemical
measurement-conditions: spiked concentration 20 ng/mL, n = 6

>  <compound>
COc1c(O)cc2oc(-c3ccc(O)cc3)cc(=O)c2c1O [Hispidulin, hispidulin]

>  <readout-unit>
ng/mL

>  <Measured, Room temperature for 4 h>
21.29

$$$$
>  <compound>
O=c1c(O)c(-c2ccc(O)c(O)c2)oc2cc(O[C@@H]3O[C@H](CO)[C@@H](O)[C@H](O)[C@H]3O)cc(O)c12 [Quercetin-7-O-β-D-glucoside, quercetin-7-O-β-D-glucoside]

>  <readout-unit>
ng/mL

>  <Measured, Room temperature for 4 h>
20.28

$$$$
>  <compound>
COc1ccc(-c2cc(=O)c3c(O)cc(O)cc3o2)cc1 [Acacetin, acacetin]

>  <readout-unit>
ng/mL

>  <Measured, Room temperature for 4 h>
21.25

$$$$
>  <compound>
O=c1cc(-c2ccc(O)cc2)oc2cc(O)c(O)c(O)c12 [Scutellarein, scutellarein]

>  <readout-unit>
ng/mL

>  <Measured, Room temperature for 4 h>
18.12

$$$$

* * *

Items are presented alongside their recorded Measured, Three freeze-thaw cycles.
assay-protocol: Stability of the analytes in rat plasma samples under storage conditions
Format: physicochemical
measurement-conditions: spiked concentration 400 ng/mL, n = 6

>  <compound>
O=c1cc(-c2ccccc2)oc2cc(O[C@@H]3O[C@H](CO[C@@H]4O[C@H](CO)[C@@H](O)[C@H](O)[C@H]4O)[C@@H](O)[C@H](O)[C@H]3O)c(O)c(O)c12

>  <Measured, Three freeze-thaw cycles [ng/mL]>
392.81

$$$$
>  <compound>
O=C(O)[C@H]1O[C@@H](Oc2cc(O)c3c(=O)cc(-c4ccccc4)oc3c2)[C@H](O)[C@@H](O)[C@@H]1O [Chrysin-7-O-β-D-glucuronide, chrysin-7-O-β-D-glucuronide]

>  <Measured, Three freeze-thaw cycles [ng/mL]>
402.45

$$$$
>  <compound>
O=c1cc(-c2ccccc2)oc2cc(O[C@@H]3O[C@H](CO)[C@@H](O)[C@H](O)[C@H]3O)c(O)c(O)c12

>  <Measured, Three freeze-thaw cycles [ng/mL]>
395.82

$$$$
>  <compound>
O=c1cc(-c2ccccc2)oc2cc(O)c(O)c(O)c12

>  <Measured, Three freeze-thaw cycles [ng/mL]>
409.67

$$$$

* * *

assay-protocol: Pharmacokinetic study in rats after oral administration of OS extract (UHPLC-QqQ-MS/MS of plasma)
Assay type: in vivo, rat
measurement-conditions: male; rat plasma, oral 3 g/kg OS extract, n = 6, mean ± SD; read-out: AUC(0-t)
Protocol: The UHPLC-QqQ-MS/MS system consisted of a 1290 UHPLC and a 6470 mass spectrometer (Agilent Technologies). Chromatographic separation was realized on utilizing an ACQUITY UPLC BEH C18 column (2.1 × 100 mm, 1.7 μm) maintained at 35 °C. […]
Threshold-based label: AUC(0-t) under 4000 ng·h/mL gives Condition met, AUC(0-t) not under 4000 ng·h/mL gives Condition not met.

>  <compound>
O=C(O)[C@H]1O[C@@H](Oc2cc3oc(-c4ccccc4)cc(=O)c3c(O)c2O)[C@H](O)[C@@H](O)[C@@H]1O

>  <group>
Condition not met

$$$$
>  <compound>
O=c1cc(-c2ccccc2)oc2cc(O[C@@H]3O[C@H](CO[C@@H]4O[C@H](CO)[C@@H](O)[C@H](O)[C@H]4O)[C@@H](O)[C@H](O)[C@H]3O)c(O)c(O)c12

>  <group>
Condition met

$$$$
>  <compound>
COc1c(O[C@@H]2O[C@H](C(=O)O)[C@@H](O)[C@H](O)[C@H]2O)cc2oc(-c3ccccc3)cc(=O)c2c1O [Oroxylin A-7-O-β-D-glucuronide, oroxylin A-7-O-β-D-glucuronide]

>  <group>
Condition not met

$$$$
>  <compound>
O=c1cc(-c2ccccc2)oc2cc(O)c(O)c(O)c12

>  <group>
Condition not met

$$$$
>  <compound>
O=c1cc(-c2ccc(O)cc2)oc2cc(O)c(O)c(O)c12

>  <group>
Condition met

$$$$
>  <compound>
O=C(O)[C@H]1O[C@@H](Oc2cc(O)c3c(=O)cc(-c4ccccc4)oc3c2)[C@H](O)[C@@H](O)[C@@H]1O [Chrysin-7-O-β-D-glucuronide, chrysin-7-O-β-D-glucuronide]

>  <group>
Condition not met

$$$$
